system: NLK; settings: concentration: 1 μM,replicates: in singlicate; n = 1;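 note: KINOMEscan kinase panel screen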
READOUT_KIND: %Inh (%)
The figure you give is taken to be in %; do not add the unit.

>  <COMPOUND>
CCn1c(-c2nonc2N)nc2c(C#CC(C)(C)O)nc(OCCN)cc21.Cl.Cl [GSK902056]

>  <%Inh [%]>
0

$$$$
>  <COMPOUND>
Cc1ccc2c(-c3ccncc3)c(-c3ccc(F)cc3)nn2c1.Cl [GW461484]

>  <%Inh [%]>
91.3

$$$$
>  <COMPOUND>
Cc1cc(C(=O)Nc2ccc(Oc3ccc4nc(NC(=O)C5CC5)cn4n3)cc2)nn1-c1ccccc1

>  <%Inh [%]>
2

$$$$
>  <COMPOUND>
CC(C)Nc1cc(-c2ccc3c(N)n[nH]c3c2)nc(N)n1 [GSK2221681]

>  <%Inh [%]>
0

$$$$
>  <COMPOUND>
CCN(CC)CCOc1ccc(Nc2ncc3cc(-c4c(Cl)cccc4Cl)c(=O)n(C)c3n2)cc1 [SB-601273]

>  <%Inh [%]>
99.3

$$$$
>  <COMPOUND>
CC(C)N1C(=O)Cc2cc(Nc3ncc(C(F)(F)F)c(NCc4cccc(S(C)(=O)=O)c4)n3)ccc21

>  <%Inh [%]>
0

$$$$

Now let's try a different one.
Consider the compound NC(=O)c1cc(-c2ccccc2)cc2c(C3CCNCC3)c[nH]c12 [GSK301362] and give its measured %Inh.
28
